assay: Preliminary assessment of in vivo pharmacokinetics in rats; settings: rat, in vivo; rats; intravenous 2 mg/kg; mean; read-out: Vss
MEASUREMENT TYPE: Vd (L/kg)

[[record]]
molecule_smiles = "CC(C)Oc1ccc(-c2nc(-c3ccc(CN4CC(C(=O)O)C4)c4ccccc34)no2)cc1C#N.Cl"
experimental_result = 0.758


###

test: Preliminary evaluation of pharmacokinetics in Beagle dogs; format: in vivo; conditions: dog, in vivo; Beagle dogs; intravenous 0.5 mg/kg; mean
MEASUREMENT TYPE: half-life (min)

[[record]]
molecule_smiles = "CC(C)Oc1ccc(-c2nc(-c3ccc(CN4CC(C(=O)O)C4)c4ccccc34)no2)cc1C#N.Cl"
experimental_result = 59


###

experiment: Preliminary evaluation of pharmacokinetics in Beagle dogs; format: in vivo; conditions: beagle, dog, plasma, oral, 3 mg/kg, intragastric 3 mg/kg; 2 h; mean; read-out: Plasma drug concentration in Beagle dogs
MEASUREMENT TYPE: concentration at 2 h (ng/mL)

[[record]]
compound = "CC(C)Oc1ccc(-c2nc(-c3ccc(CN4CC(C(=O)O)C4)c4ccccc34)no2)cc1C#N.Cl [Compound A1]"
measurement_type = "concentration at 2 h"
experimental_result = 291


###

assay: Preliminary assessment of in vivo pharmacokinetics in rats; settings: rat, plasma, oral, 20 mg/kg, intragastric 20 mg/kg; 0.25 h; mean; read-out: Plasma drug concentrations in rats
MEASUREMENT TYPE: concentration at 0.25 h (ng/mL)

[[record]]
molecule = "CC(C)Oc1ccc(-c2nc(-c3ccc(CN4CC(C(=O)O)C4)c4ccccc34)no2)cc1C#N.Cl [Compound A1]"
measurement_type = "concentration at 0.25 h"
unit_abbrev = "ng/mL"
experimental_result = 1270


###

test: Preliminary evaluation of pharmacokinetics in Beagle dogs; format: in vivo; details: beagle, dog, plasma, oral, 3 mg/kg, intragastric 3 mg/kg; 3 h; mean; read-out: Plasma drug concentration in Beagle dogs
MEASUREMENT TYPE: concentration at 3 h (ng/mL)

[[record]]
molecule_smiles = "CC(C)Oc1ccc(-c2nc(-c3ccc(CN4CC(C(=O)O)C4)c4ccccc34)no2)cc1C#N.Cl"
experimental_result = 208


###

assay: Preliminary assessment of in vivo pharmacokinetics in rats; conditions: rat, plasma, iv, 2 mg/kg, intravenous 2 mg/kg; 0.25 h; individual animals 1-3; read-out: Plasma drug concentrations in rats
MEASUREMENT TYPE: concentration at 0.25 h (ng/mL)

[[record]]
molecule_smiles = "CC(C)Oc1ccc(-c2nc(-c3ccc(CN4CC(C(=O)O)C4)c4ccccc34)no2)cc1C#N.Cl"
measurement_type = "concentration at 0.25 h"
experimental_result = 2950


###

assay: Preliminary assessment of in vivo pharmacokinetics in rats; conditions: rat, plasma, po, 20 mg/kg, rats; intragastric 20 mg/kg; mean
MEASUREMENT TYPE: AUC(0-inf) (ng·h/mL)

[[record]]
compound = "CC(C)Oc1ccc(-c2nc(-c3ccc(CN4CC(C(=O)O)C4)c4ccccc34)no2)cc1C#N.Cl [Compound A1]"
measurement_type = "AUC(0-inf)"
experimental_result = 8790


###

target: S1PR1 (Homo sapiens); construct: host or cells: CHO-K1 co-expressing Ga15; experiment: Agonistic activity test on S1P receptors, FLIPR, CHO-K1/Ga15/EDG1 cells; assay type: cell-based; settings: CHO-K1/Ga15/EDG1 cells, FLIPR agonist mode; read-out: S1PR1 EC50
Sequence (P21453 whole entry): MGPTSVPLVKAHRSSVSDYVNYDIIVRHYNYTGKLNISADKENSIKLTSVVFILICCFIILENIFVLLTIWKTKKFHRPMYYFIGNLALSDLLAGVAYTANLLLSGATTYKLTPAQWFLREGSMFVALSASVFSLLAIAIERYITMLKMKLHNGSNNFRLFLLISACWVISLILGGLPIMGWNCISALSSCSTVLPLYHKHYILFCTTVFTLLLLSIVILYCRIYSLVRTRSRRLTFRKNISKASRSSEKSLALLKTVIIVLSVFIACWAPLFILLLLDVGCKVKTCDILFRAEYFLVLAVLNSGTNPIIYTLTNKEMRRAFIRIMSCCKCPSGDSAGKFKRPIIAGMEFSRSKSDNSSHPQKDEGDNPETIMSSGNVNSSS
molecules and their reported log10(EC50)
MEASUREMENT TYPE: log10(EC50) (log10 of the value in nM)

[[record]]
molecule_smiles = "O=C(O)C1CN(Cc2ccc(-c3noc(-c4cnc5ccccc5c4)n3)c3ccccc23)C1"
assayed_system = "S1PR1 (Homo sapiens)"
measurement_type = "log10(EC50)"
experimental_result = 2.97

[[record]]
molecule_smiles = "O=C(O)C1CN(Cc2ccc(-c3noc(/C=C/c4ccccc4)n3)c3ccccc23)C1"
assayed_system = "S1PR1 (Homo sapiens)"
measurement_type = "log10(EC50)"
experimental_result = 3.15

[[record]]
molecule_smiles = "O=C(O)C1CN(Cc2ccc(-c3noc(-c4cnc5ccccc5n4)n3)c3ccccc23)C1"
assayed_system = "S1PR1 (Homo sapiens)"
measurement_type = "log10(EC50)"
experimental_result = 2.87

[[record]]
molecule_smiles = "CC(C)Oc1ccc(-c2nc(-c3ccc(CN4CC(C(=O)O)C4)c4ccccc34)no2)cc1C#N.Cl"
assayed_system = "S1PR1 (Homo sapiens)"
measurement_type = "log10(EC50)"
experimental_result = 1.68

[[record]]
molecule_smiles = "O=C(O)C1CN(Cc2ccc(-c3noc(-c4cccnc4)n3)c3ccccc23)C1"
assayed_system = "S1PR1 (Homo sapiens)"
measurement_type = "log10(EC50)"
experimental_result = 3.07

[[record]]
molecule_smiles = "CC(C)c1ccc(-c2nc(-c3ccc(CN4CC(C(=O)O)C4)c4ccccc34)no2)cc1"
assayed_system = "S1PR1 (Homo sapiens)"
measurement_type = "log10(EC50)"
experimental_result = 3.02


Data credit: patent US20240208954A1
